# test method notes: AGP1-GFP expression modulators, hit retest, confirmation, cell-based, flow cytometry, S. cerevisiae, cherry picks (AID 2273);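 note: median GFP channel fluorescence over the whole cell population gate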
# settings: S. cerevisiae AGP1-GFP strain, 3 h, at 10 µM
Reported GFP response, % of DMSO by item:
Give just the number in %; leave the unit off.

Solved entries:
COc1ccc(C(=O)c2nccc3ccccc23)cc1 = 100
COc1ccc(/C=C/C(=O)c2ccc(OC)cc2O)cc1 = 100
Cc1ccc(C(=O)Sc2cccccc2=O)cc1 = 104
CN1CC(=O)NC1=NC(=O)C12CC3CC(CC(C3)C1)C2 = 92.3
O=C(/C=C/c1c(F)cccc1Cl)c1ccc(O)cc1 = 105
O=[N+]([O-])c1cccnc1S(=O)(=O)c1ccccc1 = 102

Request: Fill blank: measured GFP response, % of DMSO of the compound `O=C(NCCN1CCOCC1)c1ccc(CS(=O)(=O)Cc2ccccc2F)o1` is ____.
Response: 104

Request: Fill blank: measured GFP response, % of DMSO of the compound CCCCNc1c(-c2ccc(SC(C)CC)cc2)nc2ccccn12 (stereo not drawn) is ____.
Response: 93.3

----------
Reported GFP response relative to DMSO by item:
# test method notes: LAP4-GFP expression modulators in yeast, confirmation, cell-based, cherry picks, flow cytometry, mother/daughter gates (AID 2271);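 note: ratio of sample to DMSO plate mean so 100% equals DMSO level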
# settings: S. cerevisiae LAP4-GFP strain, 3 h, measured here: mother cell gate response, at 10 µM, stronger effect = higher value, 100 means same as DMSO control
Give just the number in %; leave the unit off.

COc1ccc(Cc2nnc(NC(=O)c3ccccc3F)s2)cc1 = 101
Cc1c(Cc2ccccc2)c(NCCN(C)C)n2c(nc3ccccc32)c1C#N = 218
CCc1nnc(NC(=O)c2ccc(S(=O)(=O)N3CCCC(C)C3)cc2)o1 (stereo not drawn) = 100
Cc1cc(C)n2nc(C(=O)NC(c3ccccc3)c3ccccc3)nc2n1 = 99.2
Cc1ccc(S(=O)(=O)N(CC(=O)Nc2cccnc2)c2ccccc2C)cc1 = 97.3

Request: Fill blank: measured GFP response relative to DMSO of the compound `CCOC(=O)c1ccc2nc(Nc3nc4ccc(F)cc4s3)sc2c1` is ____.
Response: 102

Request: Fill blank: measured GFP response relative to DMSO of the compound `COc1ccc(N=Cc2nc(-c3ccccc3)oc2OC(C)=O)cc1` is ____.
Response: 111

Request: Fill blank: measured GFP response relative to DMSO of the compound CCCc1[nH]nc2c1C(c1ccc(OC)c(CSC3=NCCS3)c1)C(C#N)=C(N)O2 (stereo not drawn) is ____.
Response: 107

Request: Fill blank: measured GFP response relative to DMSO of the compound `N#Cc1cc(Sc2ccccn2)c([N+](=O)[O-])cc1C#N` is ____.
Response: 118

Request: Fill blank: measured GFP response relative to DMSO of the compound `COc1ccc(/C=C/C(=O)c2ccccc2O)cc1` is ____.
Response: 99.5

Request: Fill blank: measured GFP response relative to DMSO of the compound `C/C(=N\NC(=O)c1ccc(Br)cc1)c1ccccc1` is ____.
Response: 98.3

Request: Fill blank: measured GFP response relative to DMSO of the compound `COc1cc(OC)cc(-c2nc(-c3ccccc3OC)no2)c1` is ____.
Response: 101

----------
# test method notes: RPL19A-GFP modulators, yeast TOR pathway, confirmation, cell-based, S. cerevisiae, flow cytometry, cherry picks, mother/daughter gates (AID 2270)
# settings: S. cerevisiae RPL19A-GFP strain, 3 h, measured here: mother cell gate, at 10 µM, stronger effect = lower value, 100 = same GFP as DMSO wells
Reported GFP response vs DMSO by item:
Give just the number in %; leave the unit off.

Solved entries:
COc1ccc(/C=N/NC(=O)C2(C)NC(C)(C)Cc3ccccc32)cc1 (stereo not given) = 95.3
O=[N+]([O-])c1cccnc1S(=O)(=O)c1ccccc1 = 96.2
Fc1cccc(Cl)c1Cn1ncc2ccccc21 = 96.3
COc1cc(/C=C2\C(=O)ON=C2c2ccc(Cl)cc2)ccc1O = 99.4

Request: Fill blank: measured GFP response vs DMSO of the compound O=C(NC(c1ccccc1)C(Cl)Cl)c1ccccc1 (stereo not given) is ____.
Response: 92.9

Request: Fill blank: measured GFP response vs DMSO of the compound `COC(=O)c1ccc(CS(=O)(=O)c2ccc(F)cc2)o1` is ____.
Response: 95.9

Request: Fill blank: measured GFP response vs DMSO of the compound `O=C1C(Cl)=C(NCCc2ccccc2)C(=O)N1CCc1ccccc1` is ____.
Response: 104

Request: Fill blank: measured GFP response vs DMSO of the compound `O=S(=O)(c1ccc(Cl)cc1)c1ccccn1` is ____.
Response: 95.8

Request: Fill blank: measured GFP response vs DMSO of the compound `CCc1cc(=O)oc2c(CN3CCCC3)c(O)c(Cl)cc12` is ____.
Response: 95.8

Request: Fill blank: measured GFP response vs DMSO of the compound `Cc1ccc(Sc2ncnc3onc(C)c23)cc1` is ____.
Response: 95.5

Request: Fill blank: measured GFP response vs DMSO of the compound `Cc1ccccc1C(=O)Nc1cccc(N)c1` is ____.
Response: 98.6

Request: Fill blank: measured GFP response vs DMSO of the compound `Cc1ccc(S(=O)(=O)N(CC(=O)NCc2ccncc2)Cc2ccccc2F)cc1` is ____.
Response: 98.5

----------
Reported vesicle binding response by item:
# test method notes: inhibitors of CD8+ T cell-vesicle binding, pilot screen, LFA-1/ICAM-1 modulator project, MLPCN validation set, flow cytometry (AID 2523);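 note: mean PE anti-B7-1 fluorescence of CD8+ cells relative to row control; 100% = QL9-loaded vesicles with DMSO vehicle in the same plate row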
# settings: 2C mouse CD8+ T cells, at 7 µM, stronger effect = lower value
Calls of active or inactive are those of the source.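 The calls were made as follows: active = response below a set limit, under 55% cells CD8-positive and vesicle-bound, and CD8 cells' 90th-percentile brightness under 279; inactive = the rest.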

Request: Fill blank: measured vesicle binding response of the molecule `CCOC(=O)c1cnc2ccccc2c1NCCO` is ____.
Response: 186% (inactive)

Request: Fill blank: measured vesicle binding response of the molecule `C[C@H](CS)C(=O)N1CCC[C@H]1C(=O)O` is ____.
Response: 186% (inactive)

Request: Fill blank: measured vesicle binding response of the molecule `COc1ccc2[nH]c(C)c(CN3CCC(C)CC3)c(=O)c2c1` is ____.
Response: 154% (inactive)

Request: Fill blank: measured vesicle binding response of the molecule COc1ccccc1C(CC(=O)Nc1ccccc1C)c1ccc(OC(C)C)cc1 (stereo unspecified) is ____.
Response: 263% (inactive)

Request: Fill blank: measured vesicle binding response of the molecule `COc1cc(C(=O)OCCCN(C)C)cc(OC)c1OC` is ____.
Response: 180% (inactive)

Request: Fill blank: measured vesicle binding response of the molecule `O=C(O)/C=C/c1ccc(O)c(O)c1` is ____.
Response: 173% (inactive)

----------
# test method notes: LAP4-GFP expression modulators in yeast, confirmation, cell-based, cherry picks, flow cytometry, mother/daughter gates (AID 2271);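 note: ratio of sample to DMSO plate mean so 100% equals DMSO level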
# settings: S. cerevisiae LAP4-GFP strain, 3 h, at 10 µM, 100 means same as DMSO control
Active and inactive are the calls of the source.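 The calls were made as follows: active = GFP response above 150% of the DMSO control; inconclusive = fewer than 70 events counted in any yeast strain; inactive = the rest.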
Respond with a class label; see y = active, n = inactive

Worked examples, 3 compounds total:
O=C(Oc1oc(-c2ccco2)nc1C=Nc1ccccc1)c1ccoc1 = y
COc1ccc(-c2[nH]ncc2N=Nc2ccccc2)cc1 = n
Cc1ccc(NC(=O)CC2SC(=O)N(c3ccccc3)C2=O)cc1 (stereo not given) = n

Request: Any idea what this test logged for `CCCCNC(=O)c1cc2c(=O)n3cccc(C)c3nc2n(Cc2ccncc2)c1=N` ?
Response: n

Request: Any idea what this test logged for `COc1cc(NC(C)=O)ccc1NC(=O)c1cc2ccccc2o1` ?
Response: n

----------
# test method notes: AGP1-GFP expression modulators, hit retest, confirmation, cell-based, flow cytometry, S. cerevisiae, cherry picks (AID 2273);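 note: median GFP channel fluorescence over the whole cell population gate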
# settings: S. cerevisiae AGP1-GFP strain, 3 h, at 10 µM
Reported GFP response, % of DMSO by item:
Give just the number in %; leave the unit off.

Solved entries:
N#C/C(C(=O)Nc1ccc(Cl)cc1)=C(/S)Nc1ccccc1 = 100
CCc1noc(C)c1C(=O)Nc1nc(-c2ccc(Cl)cc2Cl)cs1 = 96.1

Request: Fill blank: measured GFP response, % of DMSO of the molecule `CCn1cc([N+](=O)[O-])c(C(=O)Nc2nc(-c3ccc(C)c(C)c3)c(C)s2)n1` is ____.
Response: 101

Request: Fill blank: measured GFP response, % of DMSO of the molecule CC(Oc1ccc(Cl)cc1)C(=O)NNC(=S)NC(=O)c1ccco1 (centres undefined) is ____.
Response: 115

----------
# test method notes: modulators of CIT2-GFP expression in yeast, confirmation, S. cerevisiae, GFP fusion, cherry picks, mother/daughter gates (AID 2274)
# settings: S. cerevisiae CIT2-GFP strain, flow cytometry, 3 h; measured here: daughter cell gate; at 10 µM; stronger effect = higher value
Reported GFP response, % of DMSO by item:
Give just the number in %; leave the unit off.

Solved entries:
O=C1Oc2ccccc2C(=O)/C1=C/c1ccccc1O = 91.7
O=C(COC(=O)/C=C/c1cccs1)Nc1nc(-c2cccc(Br)c2)cs1 = 108
O=C(O)Cc1ccc2ccc3ccccc3c2c1 = 99.7
O=C(Nc1nccs1)C(c1ccccc1)N1CCCCC1 (configuration not stated) = 92
COCC(=O)Nc1cc([N+](=O)[O-])ccc1C = 100
Cc1cccc(/C(N)=N/OC(=O)C23CC4CC(CC(C4)C2)C3)c1 = 111

# ---- query compound ----
Request: Fill blank: measured GFP response, % of DMSO of the compound CN1CCc2c(sc3c2C(=O)NC(c2ccc4c(c2)OCO4)N3)C1 (configuration not stated) is ____.
Response: 102

# credit: PubChem BioAssay
